# Assayed system: T1, cTnI quality control product recombinant protein (human, UniProt P19429 1-210, limits assumed)
# T1 construct: the assay paragraphs only say cTnI; also called cardiac troponin I; cTnI antigen
# T1 sequence (P19429 whole entry): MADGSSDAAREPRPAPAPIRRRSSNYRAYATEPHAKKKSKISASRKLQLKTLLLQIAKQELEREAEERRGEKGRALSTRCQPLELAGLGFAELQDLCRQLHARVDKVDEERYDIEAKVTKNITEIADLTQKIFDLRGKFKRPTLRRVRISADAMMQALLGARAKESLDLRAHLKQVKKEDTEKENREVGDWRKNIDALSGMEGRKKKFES
# Assay info: capture ELISA, antibody 333.333 ng/ml, cTnI 0.15 ug/ml
OD 450 nm for assorted binders
Property: OD 450 nm (OD)

Mutation 1 (antibody, V domains shown, other CDR sites as WT) VH: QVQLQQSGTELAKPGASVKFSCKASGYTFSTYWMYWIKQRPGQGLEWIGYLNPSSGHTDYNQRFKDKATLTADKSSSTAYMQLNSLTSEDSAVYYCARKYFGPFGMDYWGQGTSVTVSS VL: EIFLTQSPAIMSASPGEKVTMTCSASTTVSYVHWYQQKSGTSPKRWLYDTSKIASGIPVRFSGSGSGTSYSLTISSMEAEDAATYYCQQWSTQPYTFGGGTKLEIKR = 2.4
Mutation 2 (antibody, V domains shown, other CDR sites as WT) VH: QVQLQQSGTELAKPGASVKFSCKASLYTFSTYWMYWIKQRPGQGLEWIGYLNPSSGHTEYNQRFKDKATLTADKSSSTAYMQLNSLTSEDSAVYYCARKYFGPFIMDYWGQGTSVTVSS VL: EIFLTQSPAIMSASPGEKVTMTCSASTTVSYAHWYQQKSGTSPKRWLYDTSKIASGIPVRFSGSGSGTSYSLTISSMEAEDAATYYCQVWSTQPYTFGGGTKLEIKR = 2.3
Mutation 4 (antibody, V domains shown, other CDR sites as WT) VH: QVQLQQSGTELAKPGASVKFSCKASNYTFSTYWMYWIKQRPGQGLEWIGYLNPSSGHTKYNQRFKDKATLTADKSSSTAYMQLNSLTSEDSAVYYCARKYFGPFNMDYWGQGTSVTVSS VL: EIFLTQSPAIMSASPGEKVTMTCSASTTVSYEHWYQQKSGTSPKRWLYDQSKIASGIPVRFSGSGSGTSYSLTISSMEAEDAATYYCQVWSTQPYTFGGGTKLEIKR = 0.678
